meta.source: ChEMBL document CHEMBL3988442

Test system: Trypanosoma cruzi
Experiment: Trypanosoma cruzi phosphomannomutase and mannose-1-phosphate guanylyltransferase assay
Format: functional
Parameters: scale not given: direction of the effect not stated beside the values
Condition notes: 10 µM
# Percent Effect values compiled below
Answer with a number only, understood to be in %.

Entry Cn1cc(CN2CCC3(CC(=O)N(c4ccc5c(c4)OCO5)C3)C2)cn1 (stereo unspecified) ; Percent Effect = 1.85

Next:
The recorded Percent Effect for CN(Cc1cnccn1)C(=O)c1ccnc(OC2CCC2)c1 is 0.193

// Percent Effect value for CC(C)(C)c1nnc(CN2CCn3c(nnc3C3CC3)C2)o1 : -2.21

Percent Effect reading for Cc1nccnc1N1CC[C@@H](NC(=O)c2cnccn2)[C@H](O)C1 : 7.53

The compound CCc1nccn1C1CCCN(C(=O)Cc2n[nH]c3ccccc23)C1 (stereo unspecified) showed Percent Effect equal to -4.62

Noted for O=C(CCN1C(=O)CCC1=O)Nc1cnn(-c2ccccc2Cl)c1 : its Percent Effect reads -7.52

So, CC(C(=O)N1CCCN(c2ccc(C#N)cc2)CC1)n1ccnc1 (stereo unspecified) ? Its Percent Effect was 3.01

The value of Percent Effect measured for the compound CC(NC(=O)CSCC#N)c1ccccc1 (stereo unspecified) turned out to be 5.51

Note to self: Percent Effect recorded for O=C(c1ccncc1)N1CCCC2(COCCN(c3ccccc3)C2)C1 (stereo unspecified) was -6.72

Lab note: measured Percent Effect of Cc1ccc2cnn(CCC(=O)NCc3c(C)nn(C)c3C)c2c1 was 0.492

Reported Percent Effect for Cc1ccc([C@@H]2CN(S(=O)(=O)N(C)C)C[C@H]2N(C)C)cc1 was 3.42

* * *

Experimental system: Ubiquitin-activating enzyme e1, putative (Leishmania donovani (strain BPK282A1))
Experiment: Leishmania donovani Ubiquitin Activating Enzyme (LdE1)
Type: functional
Parameters: scale not given: direction of the effect not stated beside the values
Condition notes: 30 µM
Measured potencies and affinities stand elsewhere.
Measurement type: Percent Effect (%)
Kindly answer with a numeric value in %, unit omitted.

Fill in: Ubiquitin-activating enzyme e1, putative (Leishmania donovani (strain BPK282A1)) Percent Effect for Cc1nc(C)n(CC2CN(CC(=O)Nc3cccnc3)CCO2)n1 (configuration not stated) = 4.17

Response field Percent Effect (Ubiquitin-activating enzyme e1, putative (Leishmania donovani (strain BPK282A1))) for item Cc1ccsc1C(=O)N1Cc2ccccc2C2(CCN(C)CC2)C1 : -1.3

Tested on Ubiquitin-activating enzyme e1, putative (Leishmania donovani (strain BPK282A1)): Cc1nccn1-c1cc(CNC(=O)CCC2CCCO2)ccn1 (configuration not stated) . Observed Percent Effect: 26.3

Ubiquitin-activating enzyme e1, putative (Leishmania donovani (strain BPK282A1)) assay, compound O=C(c1ccc(F)cc1Cl)N1CCC(Nc2cccnn2)CC1 , recorded Percent Effect = 18.2

Bench note, Ubiquitin-activating enzyme e1, putative (Leishmania donovani (strain BPK282A1)): entry CC(=O)Nc1nc(CN2CCCC2Cn2cncn2)cs1 (configuration not stated) , its Percent Effect = 13

Field Percent Effect (Ubiquitin-activating enzyme e1, putative (Leishmania donovani (strain BPK282A1))), entry CCCC(C)C(=O)NCc1cn2cc(Br)ccc2n1 (configuration not stated) : -44.7

Test item CC(CCc1ccccc1)NC(=O)Nc1cnn(CC(N)=O)c1 (configuration not stated) ; Ubiquitin-activating enzyme e1, putative (Leishmania donovani (strain BPK282A1)); reported Percent Effect was 16.5

O=C(Nc1cc(C(F)(F)F)c[nH]c1=O)c1ccco1 tested on Ubiquitin-activating enzyme e1, putative (Leishmania donovani (strain BPK282A1)) gave Percent Effect: -2.63

Continuing:
Simply: Cc1noc(C)c1CN(C)C(=O)NC1CCN(C2CC2)CC1 , Ubiquitin-activating enzyme e1, putative (Leishmania donovani (strain BPK282A1)), Percent Effect = 2.56

Percent Effect value, target or system Ubiquitin-activating enzyme e1, putative (Leishmania donovani (strain BPK282A1)), for Cc1c(C(=O)NCC2CCCO2)nnn1-c1cccc2c1CCN(C)C2 (configuration not stated) : 2.63

Form: item Cc1noc(CN2CCN(Cc3cccs3)CC2)n1 ; test system Ubiquitin-activating enzyme e1, putative (Leishmania donovani (strain BPK282A1)); Percent Effect: 15.6

The observed Percent Effect for Cc1nn(C)c(C)c1C1CCCN1Cc1cccc(C(N)=O)c1 (configuration not stated) when tested with Ubiquitin-activating enzyme e1, putative (Leishmania donovani (strain BPK282A1)) stands at 0
